Tested on: barnyardgrass (Echinochloa crus-galli)
experimental details: Test A postemergence, sprayed to runoff
Format: in vivo
details: Rate 500 g/ha, approx. eleven days
parameter: Plant response rating (visual injury vs untreated controls)
// return just the number, without any unit appended

CC(C)(C)c1ccn(C2SCN(c3cccc(C(F)(F)F)c3)C2=O)n1 (stereo not drawn) [Compound 1] :: 60
CC(C)(C)c1nn(C2CCN(c3cccc(C(F)(F)F)c3)C2=O)cc1Cl (stereo not drawn) [Compound 14] :: 0
O=C1C(n2ccc(C3CC3)n2)SCN1c1cccc(C(F)(F)F)c1 (stereo not drawn) [Compound 26] :: 90
CC(C)c1ccn(C2OCN(c3cccc(C(F)(F)F)c3)C2=O)n1 (stereo not drawn) [Compound 27] :: 70

Could you tell me which Plant response rating (visual injury vs untreated controls) is on file for Cc1ccn(C2CCN(c3cccc(C(F)(F)F)c3)C2=O)n1 (stereo not drawn) [Compound 16] ?
0

Could you tell me which Plant response rating (visual injury vs untreated controls) is on file for CC(C)(C)c1ccn(C2CCN(c3cccc(I)c3)C2=O)n1 (stereo not drawn) [Compound 88] ?
30

----------
Test system: yellow nutsedge (Cyperus esculentus)
experimental details: Test C preemergence
Assay type: in vivo
details: preemergence, Rate 31 g/ha, scale 0 to 100
parameter: Plant response rating, Nutsedge
// return just the number, without any unit appended

CC(C)(C)c1ccn(C2CCN(c3ccc(Cl)c(Cl)c3)C2=O)n1 (stereo not shown) [Compound 34] :: 0
CC(C)(C)c1ccn(C2SCN(c3cccc(OC(F)F)c3)C2=O)n1 (stereo not shown) [Compound 36] :: 0
CCCC(C)c1ccn(C2SCN(c3cccc(OC(F)(F)F)c3)C2=O)n1 (stereo not shown) [Compound 90] :: 0

Could you tell me which Plant response rating, Nutsedge is on file for CCC(CC)c1ccn(C2SCN(c3cccc(C(F)(F)F)c3)C2=O)n1 (stereo not shown) [Compound 21] ?
20

----------
Tested on: redroot pigweed (Amaranthus retroflexus)
experimental details: Test A preemergence, soil drench
Assay type: in vivo
details: Rate 500 g/ha, approx. eleven days
Overview of recorded Plant response rating (visual injury vs untreated controls) for various compounds

Cc1ccn(C2CCN(c3cccc(C(F)(F)F)c3)C2=O)n1 (stereo not shown) :: 80

Could you tell me which Plant response rating (visual injury vs untreated controls) is on file for O=C1C(n2ccc(C3CC3)n2)OCN1c1cccc(C(F)(F)F)c1 (stereo not shown) ?
100

Could you tell me which Plant response rating (visual injury vs untreated controls) is on file for O=C1C(n2cccn2)CCN1c1cccc(C(F)(F)F)c1 (stereo not shown) ?
30

Could you tell me which Plant response rating (visual injury vs untreated controls) is on file for O=C1C(n2cc(Cl)c(C3CC3)n2)CCN1c1cccc(C(F)(F)F)c1 (stereo not shown) ?
0

----------
System: duck salad (Heteranthera limosa)
experimental details: Test C flooded paddy test
Assay type: in vivo
details: flooded paddy test, Rate 62 g/ha; scale 0 to 100 (0 no effect, 100 complete control)
Experimental: At the same time, plants selected from these crop and weed species and also winter barley (Hordeum vulgare), blackgrass (Alopecurus myosuroides), canary grass (Phalaris minor), chickweed (Stellaria media), downy brome (Bromus tectorum), green foxtail (Setaria viridis), Italian ryegrass (Lolium multiflorum), wheat (Triticum aestivum), wild oat (Avena fatua) and windgrass (Apera spica-venti) were treated with postemergence applications of some of the test chemicals formulated in the same manner. […]
Overview of recorded Plant response rating, Ducksalad for various compounds

Some compounds with recorded Plant response rating, Ducksalad:
Cc1ccc(N2CCC(n3ccc(C(C)(C)C)n3)C2=O)cc1OC(C)C (stereo not shown) :: 10
CC(C)(C)c1ccn(C2OCN(c3cccc(OC(F)(F)F)c3)C2=O)n1 (stereo not shown) :: 30
CCC(CC)c1ccn(C2CCN(c3ccc(C)c(OC)c3)C2=O)n1 (stereo not shown) :: 80

Could you tell me which Plant response rating, Ducksalad is on file for Cc1ccc(N2CCC(n3ccc(C(C)(C)C)n3)C2=O)cc1OCCI (stereo not shown) ?
0

Could you tell me which Plant response rating, Ducksalad is on file for CCCCC(CCCC)c1ccn(C2OCN(c3cccc(C(F)(F)F)c3)C2=O)n1 (stereo not shown) ?
0

Could you tell me which Plant response rating, Ducksalad is on file for COc1cc(N2CCC(n3ccc(C(C)(C)C)n3)C2=O)ccc1C (stereo not shown) ?
100

Could you tell me which Plant response rating, Ducksalad is on file for CC(C)(C)c1ccn(C2CCN(c3ccc(Cl)c(Cl)c3)C2=O)n1 (stereo not shown) ?
20
